Ref: paper PMC11847391

System: B16F10 murine melanoma cancer cell line
Test: Cytotoxicity, Trypan blue exclusion test, B16F10
Type: cell-based
Conditions: B16F10
measure: Cytotoxicity against B16F10 (in words)

- Clc1ccc(Nc2c(-c3ccsc3)nc3ccccn23)cc1: ineffective
- COc1ccc(-c2nc3ccccn3c2Nc2ccc(Cl)cc2)cc1OCc1ccccc1: ineffective
- COc1cccc(-c2nc3ccccn3c2Nc2ccc(Cl)cc2)c1OC: ineffective
- COc1ccc(-c2nc3ccccn3c2Nc2ccc(Cl)cc2)c(OC)c1OC: ineffective

###

Documented IC50 across a set of molecules
System: mouse Embryonic Fibroblast-1 cell line (MEF-1)
Assay: Cytotoxicity, Trypan blue exclusion test, normal MEF cells
Format: cell-based
Settings: normal cell line MEF, 24 h, Trypan blue exclusion, mean ± SD of two independent experiments
measure: IC50

• COc1ccc(-c2nc3ccccn3c2Nc2ccc(Cl)cc2)c(OC)c1OC = > 200 µM
• FC(F)(F)c1ccc(-c2nc3ccccn3c2Nc2ccc(Cl)cc2)cc1 = 63.9 µM
• Clc1ccc(Nc2c(-c3c[nH]c4ccccc34)nc3ccccn23)cc1 [Compound 11] = < 1.84 µM
• Clc1ccc(Nc2c(-c3ccco3)nc3ccccn23)cc1 = 32.9 µM
• COc1cccc(-c2nc3ccccn3c2Nc2ccc(Cl)cc2)c1OC = > 200 µM
• COc1ccc(-c2nc3ccccn3c2Nc2ccc(Cl)cc2)cc1OCc1ccccc1 = 18.5 µM
• Fc1ccc(-c2nc3ccccn3c2Nc2ccc(Cl)cc2)c(F)c1 = 16.3 µM
• Clc1ccc(Nc2c(-c3c[nH]c4ccccc34)nc3ccccn23)cc1 [C00003] = 1.84 µM
• Clc1ccc(Nc2c(-c3ccsc3)nc3ccccn23)cc1 = > 200 µM
• Clc1ccc(Nc2c(-c3ccc4ccccc4c3)nc3ccccn23)cc1 = > 200 µM

###

Tested on: HT-29 human colorectal adenocarcinoma cell line
Assay: Cytotoxicity, Trypan blue exclusion test, HT-29
Format: cell-based
Details: Homo sapiens, HT-29, 24 h, Trypan blue exclusion, mean ± SD of two independent experiments
Could you mark each record label 1 if its IC50 falls strictly under 40 µM, and label 0 if it equals or exceeds it?

* Fc1ccc(-c2nc3ccccn3c2Nc2ccc(Cl)cc2)c(F)c1 | label 1
* CC(=O)O[C@H]1C(=O)[C@@]2(C)[C@H]([C@H](OC(=O)c3ccccc3)[C@]3(O)C[C@H](OC(=O)[C@H](O)[C@@H](NC(=O)c4ccccc4)c4ccccc4)C(C)=C1C3(C)C)[C@]1(OC(C)=O)CO[C@@H]1C[C@@H]2O [Paclitaxel (Taxol), Paclitaxel, reference compound] | label 1
* FC(F)(F)c1ccc(-c2nc3ccccn3c2Nc2ccc(Cl)cc2)cc1 | label 0
* O=[N+]([O-])c1ccccc1-c1nc2ccccn2c1Nc1ccc(Cl)cc1 | label 1
* Clc1ccc(Nc2c(-c3ccco3)nc3ccccn23)cc1 | label 0
* Clc1ccc(Nc2c(-c3c[nH]c4ccccc34)nc3ccccn23)cc1 | label 1
* Cc1cccc(-c2nc3ccccn3c2Nc2ccc(Cl)cc2)c1 | label 0
* Clc1ccc(Nc2c(-c3ccc4ccccc4c3)nc3ccccn23)cc1 | label 0

###

Tested on: HT-29 human colorectal adenocarcinoma cell line
Test: Cytotoxicity, Trypan blue exclusion test, HT-29
Assay type: cell-based
Settings: HT-29, 24 h, Trypan blue exclusion, mean ± SD of two independent experiments
Documented IC50 across a set of molecules
measure: IC50 (µM)

- FC(F)(F)c1ccc(-c2nc3ccccn3c2Nc2ccc(Cl)cc2)cc1: 85.5
- Clc1ccc(Nc2c(-c3ccco3)nc3ccccn23)cc1 [C00005]: 48.3
- Fc1ccc(-c2nc3ccccn3c2Nc2ccc(Cl)cc2)c(F)c1 [C00010]: 10.1
- Clc1ccc(Nc2c(-c3c[nH]c4ccccc34)nc3ccccn23)cc1: 18.3
